Each entry below carries its recorded activity at 10000 µM.
MEASURED_TARGET: ALT (Homo sapiens)
Construct: purchased ASAHI CHEMICAL INDUSTRIES CO., LTD; T-71
Sequence (P24298 1-496): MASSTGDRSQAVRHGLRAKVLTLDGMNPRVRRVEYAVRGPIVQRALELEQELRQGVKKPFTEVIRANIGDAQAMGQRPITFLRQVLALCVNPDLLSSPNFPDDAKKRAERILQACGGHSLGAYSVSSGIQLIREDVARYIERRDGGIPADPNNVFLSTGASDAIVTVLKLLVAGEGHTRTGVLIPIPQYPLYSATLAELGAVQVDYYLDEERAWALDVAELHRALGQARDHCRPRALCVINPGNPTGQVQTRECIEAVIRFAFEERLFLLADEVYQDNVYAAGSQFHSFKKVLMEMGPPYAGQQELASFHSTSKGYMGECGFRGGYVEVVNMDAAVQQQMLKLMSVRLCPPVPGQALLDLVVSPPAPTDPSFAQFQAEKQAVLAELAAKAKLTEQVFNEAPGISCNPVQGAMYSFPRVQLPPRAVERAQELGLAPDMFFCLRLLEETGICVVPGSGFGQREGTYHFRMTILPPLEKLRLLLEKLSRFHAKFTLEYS
EXPERIMENTAL_DETAILS: Stabilization effect of amino acids on ALT in control substance (residual activity after storage)
Assay type: biochemical
CONDITION_LABEL: 96 h, BSA base; amino acid 10 mmol/L; r-ALT about 100 U/L; stored at 45°C for four days (Example 1); read-out: Residual activity (%) of ALT
Give just the numeric value; % need not be written.

{"columns": ["COMPOUND", "MEASURED_TARGET", "activity at 10000 µM / %"],
 "data": [
  ["N[C@@H](Cc1c[nH]c2ccccc12)C(=O)O [Tryptophane]", "ALT (Homo sapiens)", 30],
  ["NCC(=O)O [Glycine]", "ALT (Homo sapiens)", 30],
  ["CC(C)C[C@H](N)C(=O)O [Leucine]", "ALT (Homo sapiens)", 28]
]}

In: State its activity at 10000 µM for this compound: N[C@@H](CO)C(=O)O [Serine]
Out: 32

In: State its activity at 10000 µM for this compound: C[C@H](N)C(=O)O [Alanine]
Out: 28

In: State its activity at 10000 µM for this compound: N[C@@H](CS)C(=O)O [Cysteine]
Out: 24

In: State its activity at 10000 µM for this compound: N[C@@H](Cc1c[nH]cn1)C(=O)O [Histidine]
Out: 28

In: State its activity at 10000 µM for this compound: CC[C@H](C)[C@H](N)C(=O)O [Isoleucine]
Out: 28

In: State its activity at 10000 µM for this compound: CSCC[C@H](N)C(=O)O [Methionine]
Out: 31

###

MEASURED_TARGET: ALT (Homo sapiens, UniProt P24298)
Construct: purchased ASAHI CHEMICAL INDUSTRIES CO., LTD; T-71
Sequence (P24298 1-496): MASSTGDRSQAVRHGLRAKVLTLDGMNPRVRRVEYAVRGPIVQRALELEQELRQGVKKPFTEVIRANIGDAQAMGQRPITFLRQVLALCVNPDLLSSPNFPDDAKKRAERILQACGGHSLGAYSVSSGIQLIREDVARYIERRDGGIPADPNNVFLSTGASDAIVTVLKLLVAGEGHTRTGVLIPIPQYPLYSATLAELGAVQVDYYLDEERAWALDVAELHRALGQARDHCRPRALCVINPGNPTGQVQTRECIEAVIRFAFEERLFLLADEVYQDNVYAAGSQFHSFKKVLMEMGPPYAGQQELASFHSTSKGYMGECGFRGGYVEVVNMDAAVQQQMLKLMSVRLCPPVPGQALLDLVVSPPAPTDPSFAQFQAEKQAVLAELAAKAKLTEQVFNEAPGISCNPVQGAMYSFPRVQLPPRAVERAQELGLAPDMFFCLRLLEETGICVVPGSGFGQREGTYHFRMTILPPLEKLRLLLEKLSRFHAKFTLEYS
EXPERIMENTAL_DETAILS: Stabilization effect of amino acids on ALT in control substance (residual activity after storage)
Type: biochemical
CONDITION_LABEL: 96 h, Human serum base; amino acid 10 mmol/L; r-ALT about 100 U/L; stored at 45°C for four days (Example 1); read-out: Residual activity (%) of ALT
RECORDED_METRIC: activity at 10000 µM (%)
Give just the numeric value; % need not be written.

Solved entries (count: 2):
{"columns": ["COMPOUND", "ENDPOINT_UNIT", "activity at 10000 µM"],
 "data": [
  ["NC(=O)CC[C@H](N)C(=O)O [Glutamine]", "%", 17],
  ["NC(=O)C[C@H](N)C(=O)O [Asparagine]", "%", 14]
]}

In: Output reported activity at 10000 µM of the compound CSCC[C@H](N)C(=O)O [Methionine] on ALT (Homo sapiens, UniProt P24298).
Out: 20

Hey, just so you know, these numbers are from patent EP1508617B1.
